Experiment: clinical
Conditions: human, whole blood, intravenous, 0.8 mg/m2
MEASURE: AUC(0-t)

C[C@@]12OC(=O)[C@]1([C@@H](O)[C@@H]1C=CCCC1)NC(=O)[C@@H]2CCCl	4.05 ng·h/mL

---

Assay: clinical
Details: human, whole blood, iv, 0.8 mg/m2
MEASURE: AUC(0-t) (ng·h/mL)

C[C@@]12OC(=O)[C@]1([C@@H](O)[C@@H]1C=CCCC1)NC(=O)[C@@H]2CCCl [marizomib]	6.53

---

Assay: clinical
Conditions: human, whole blood, iv, 0.7 mg/m2
MEASURE: half-life (min)

C[C@@]12OC(=O)[C@]1([C@@H](O)[C@@H]1C=CCCC1)NC(=O)[C@@H]2CCCl [marizomib]	16

---

Experiment: clinical
Conditions: human, whole blood, iv, 0.7 mg/m2
MEASURE: Tmax (min)

C[C@@]12OC(=O)[C@]1([C@@H](O)[C@@H]1C=CCCC1)NC(=O)[C@@H]2CCCl [marizomib]	21.3

---

Experiment: clinical
Details: human, blood, iv, 0.8 mg/m2
MEASURE: Cmax (ng/mL)

C[C@@]12OC(=O)[C@]1([C@@H](O)[C@@H]1C=CCCC1)NC(=O)[C@@H]2CCCl [marizomib]	26.5

---

Assay: clinical
Details: human, whole blood, iv, 0.8 mg/m2
MEASURE: Tmax

C[C@@]12OC(=O)[C@]1([C@@H](O)[C@@H]1C=CCCC1)NC(=O)[C@@H]2CCCl	8 min

---

Assay: clinical
Settings: human, whole blood, intravenous, 0.8 mg/m2
MEASURE: Tmax (h)

C[C@@]12OC(=O)[C@]1([C@@H](O)[C@@H]1C=CCCC1)NC(=O)[C@@H]2CCCl [marizomib]	0

---

Assay: clinical
Conditions: human, whole blood, intravenous, 0.7 mg/m2
MEASURE: half-life (min)

C[C@@]12OC(=O)[C@]1([C@@H](O)[C@@H]1C=CCCC1)NC(=O)[C@@H]2CCCl	32

---

Assay: clinical
Conditions: human, whole blood, intravenous, 0.8 mg/m2
MEASURE: Cmax (ng/mL)

C[C@@]12OC(=O)[C@]1([C@@H](O)[C@@H]1C=CCCC1)NC(=O)[C@@H]2CCCl [marizomib]	26

---

Test: clinical
Details: human, whole blood, intravenous, […]2
MEASURE: half-life

C[C@@]12OC(=O)[C@]1([C@@H](O)[C@@H]1C=CCCC1)NC(=O)[C@@H]2CCCl	8.8 min
